system: HaCat; assay: Cytotoxic Profiling of Annotated Libraries Using Quantitative High-Throughput Screening (AID 1296008); details: Five cell lines viability, CellTiter-Glo ATP luminescence, 48-72 h; further: nearly all actives have a fitted effect of over 60% in size
Inconclusive results are not listed. Active and inactive are the calls of the source. The call rests on the fitted dose curve; in most records, active means well fitted inhibition curve with a large enough effect; inconclusive means small, poorly fitted or top-dose-only effect; inactive means flat fitted curve, though single readings scatter.
Use one of these outcomes when replying: active, inactive

- CCN1CCN(Cc2ccc(-c3cc4c(N[C@H](C)c5ccccc5)ncnc4[nH]3)cc2)CC1: active

Outcome? CCCCCCCCCC(=O)N[C@@H](Cc1c[nH]c2ccccc12)C(=O)N[C@H](CC(N)=O)C(=O)N[C@@H](CC(=O)O)C(=O)N[C@@H]1C(=O)NCC(=O)N[C@@H](CCCN)C(=O)N[C@@H](CC(=O)O)C(=O)N[C@H](C)C(=O)N[C@@H](CC(=O)O)C(=O)NCC(=O)N[C@H](CO)C(=O)N[C@@H]([C@@H](C)CC(=O)O)C(=O)N[C@@H](CC(=O)c2ccccc2N)C(=O)O[C@@H]1C
inactive

Dear colleague, could you share the recorded outcome for Nc1ccccc1NC(=O)c1ccc(CNc2nccc(-c3cccnc3)n2)cc1 when you have a moment?
active

Status in this test for Cc1cc(Nc2nc(N[C@@H](C)c3ccc(F)cc3)c(C#N)cc2F)n[nH]1 ?
active

Just curious, what result did N#Cc1c(O)c2c(-c3ccc(-c4ccccc4O)cc3)csc2[nH]c1=O get here?
inactive
